# TEST_TARGET: SIRT6 (Homo sapiens, UniProt Q8N6T7)
# Sequence (Q8N6T7 whole entry): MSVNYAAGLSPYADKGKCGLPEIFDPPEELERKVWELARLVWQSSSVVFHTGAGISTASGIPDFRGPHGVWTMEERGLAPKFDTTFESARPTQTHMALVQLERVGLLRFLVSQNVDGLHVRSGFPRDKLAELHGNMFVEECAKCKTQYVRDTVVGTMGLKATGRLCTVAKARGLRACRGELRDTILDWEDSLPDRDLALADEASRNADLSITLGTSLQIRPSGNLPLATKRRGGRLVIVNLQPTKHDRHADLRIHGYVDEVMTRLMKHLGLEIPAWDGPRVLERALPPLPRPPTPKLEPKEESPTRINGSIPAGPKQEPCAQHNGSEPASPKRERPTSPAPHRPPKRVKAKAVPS
# EXPERIMENTAL_DETAILS: FDL assay of SIRT6 deacetylase activity (RHKK-Ac-AMC)
# Format: biochemical
# Parameters: WT (wild-type) full-length human SIRT6 was inserted into the pET28a-LIC vector; made in house; host or cells: Escherichia coli BL21 (DE3)
# MEASUREMENT_CONTEXT: activation of SIRT6 deacetylation, RHKK-Ac-AMC (75 µM), mean ± s.d., three independent experiments
QUANTITY_NAME: EC50 (µM)

STRUCTURE_SMILES	EC50 [µM]
Cc1cc(F)c(Br)cc1NS(=O)(=O)c1ccc(NS(=O)(=O)c2cc(Cl)cc(Cl)c2)cc1CN1CCNCC1	12.8

a. CCN(C)Cc1cc(NS(=O)(=O)c2cc(Cl)cc(Cl)c2)ccc1S(=O)(=O)Nc1cc(Br)c(F)cc1C
b. COCCCN1CCN(Cc2cc(NS(=O)(=O)c3cc(Cl)cc(Cl)c3)ccc2S(=O)(=O)Nc2cc(Br)c(F)cc2C)CC1
c. Cc1cc(F)c(Br)cc1NS(=O)(=O)c1ccc(NS(=O)(=O)c2cc(Cl)cc(Cl)c2)cc1CN1CCC(N2CCCCC2)CC1
Q) Please put the entries in order of rising EC50. Write the labels, ordered according to the request.
A) b, c, a

----------
# System: SW1417
# EXPERIMENTAL_DETAILS: Cell proliferation, CCK-8
# Type: cell-based
# MEASUREMENT_CONTEXT: Homo sapiens; SW1417, CCK8, 48 h
QUANTITY_NAME: pIC50
Please note pIC50 is a logarithmic value: minus log10 of concentration in mol/L. Answer with that number alone.

Q) Which measured pIC50 belongs to Cc1cc(F)c(Br)cc1NS(=O)(=O)c1ccc(NS(=O)(=O)c2cc(Cl)cc(Cl)c2)cc1CN1CCOC[C@H]1C , tested on SW1417?
A) 4.82

----------
# System: HCT15
# EXPERIMENTAL_DETAILS: Cell proliferation, CCK-8
# Type: cell-based
# MEASUREMENT_CONTEXT: Homo sapiens, HCT-15; HCT15, CCK8, 48 h
# Method: Cell proliferation was evaluated using a Cell Counting Kit-8 (CCK-8) (Dojindo) following the manufacturer's instructions. Briefly, CRC cells were plated in 96-well plates at a density of 5 × 10^3 cells per well. […] Then, a microplate reader (Synergy H4 Hybrid Reader, BioTek) was used to measure the absorbance of the solvent at 450 nm. […] The relative cell proliferation of each treatment group was expressed as the percentage change relative to the positive control group. […]
QUANTITY_NAME: IC50 (µM)
Number only, in µM; omit the unit.

Q) Param item = Cc1cc(F)c(Br)cc1NS(=O)(=O)c1ccc(NS(=O)(=O)c2cc(Cl)cc(Cl)c2)cc1CN1CCOC[C@H]1C ; retrieve measured IC50.
A) 20.5

----------
# EXPERIMENTAL_DETAILS: Pharmacokinetic studies in mice
# Format: in vivo
# MEASUREMENT_CONTEXT: male, mouse, 30 mg/kg; IP 30 mg/mL, plasma, C57BL/6J mice, mean of five mice
QUANTITY_NAME: AUC(0-inf) (ng·h/mL)
The response must be a number in ng·h/mL with no trailing unit.

Q) Item under review: Cc1cc(F)c(Br)cc1NS(=O)(=O)c1ccc(NS(=O)(=O)c2cc(Cl)cc(Cl)c2)cc1CN1CCOC[C@H]1C . Reported AUC(0-inf)?
A) 19700

----------
# EXPERIMENTAL_DETAILS: Pharmacokinetic studies in mice
# Format: in vivo
# MEASUREMENT_CONTEXT: male, mouse, 30 mg/kg; IP 30 mg/mL, plasma, C57BL/6J mice, mean of five mice; read-out: tmax
QUANTITY_NAME: tmax (min)
Express the result in min but write the number alone.

Q) Can you share its tmax? I mean this compound: Cc1cc(F)c(Br)cc1NS(=O)(=O)c1ccc(NS(=O)(=O)c2cc(Cl)cc(Cl)c2)cc1CN1CCOC[C@H]1C
A) 30

----------
# TEST_TARGET: SIRT6 (Homo sapiens)
# EXPERIMENTAL_DETAILS: FDL assay of SIRT6 deacetylase activity (RHKK-Ac-AMC)
# MEASUREMENT_CONTEXT: activation of SIRT6 deacetylation, RHKK-Ac-AMC (75 µM), mean ± s.d., three independent experiments
QUANTITY_NAME: EC50 (µM)

MOLECULE	UNIT_OF_MEASURE	EC50
Cc1cc(F)c(Br)cc1NS(=O)(=O)c1ccc(NS(=O)(=O)c2cc(Cl)cc(Cl)c2)cc1CN1CCCC1CO (stereo not shown) [MDL-822]	µM	23.9

I. Cc1cc(F)c(Br)cc1NS(=O)(=O)c1ccc(NS(=O)(=O)c2cc(Cl)cc(Cl)c2)cc1CN1CCCCC1 [MDL-821]
II. Cc1cc(F)c(Br)cc1NS(=O)(=O)c1ccc(NS(=O)(=O)c2cc(Cl)cc(Cl)c2)cc1CN(C)C [MDL-818]
III. CCCCN1CCN(Cc2cc(NS(=O)(=O)c3cc(Cl)cc(Cl)c3)ccc2S(=O)(=O)Nc2cc(Br)c(F)cc2C)CC1 [MDL-816]
Q) Ascending sort, EC50. Answer with the labels in sequence, matching the requested order.
A) III, I, II
(III: 7.1 µM, I: 12.2 µM, II: 43.6 µM)

----------
# EXPERIMENTAL_DETAILS: Pharmacokinetic studies in mice
# Type: in vivo
# MEASUREMENT_CONTEXT: male, mouse, plasma, intraperitoneal; IP 30 mg/mL vs IV, ratio of AUC normalized to dose, C57BL/6J mice; read-out: F (bioavailability)
QUANTITY_NAME: bioavailability (%)
Report as a plain number; the unit % is understood.

Q) What measured bioavailability goes with Cc1cc(F)c(Br)cc1NS(=O)(=O)c1ccc(NS(=O)(=O)c2cc(Cl)cc(Cl)c2)cc1CN1CCOC[C@H]1C [MDL-811] ?
A) 93

----------
# EXPERIMENTAL_DETAILS: Pharmacokinetic studies in mice
# Format: in vivo
# MEASUREMENT_CONTEXT: male, mouse, 30 mg/kg; IP 30 mg/mL, plasma, C57BL/6J mice, mean of five mice; read-out: Cmax
QUANTITY_NAME: Cmax (ng/mL)
Write it as a number; the unit ng/mL goes unstated.

Q) Reported Cmax, molecule Cc1cc(F)c(Br)cc1NS(=O)(=O)c1ccc(NS(=O)(=O)c2cc(Cl)cc(Cl)c2)cc1CN1CCOC[C@H]1C : ____
A) 5330

----------
# TEST_TARGET: SIRT6 (Homo sapiens)
# EXPERIMENTAL_DETAILS: FDL assay of SIRT6 deacetylase activity (RHKK-Ac-AMC)
# MEASUREMENT_CONTEXT: activation of SIRT6 deacetylation, RHKK-Ac-AMC (75 µM), mean ± s.d., three independent experiments
QUANTITY_NAME: EC50 (µM)

1. Cc1cc(F)c(Br)cc1NS(=O)(=O)c1ccc(NS(=O)(=O)c2cc(Cl)cc(Cl)c2)cc1CN1CCC(N(C)C)C1 (stereo not drawn) [MDL-817]
2. CCCCN(CC)Cc1cc(NS(=O)(=O)c2cc(Cl)cc(Cl)c2)ccc1S(=O)(=O)Nc1cc(Br)c(F)cc1C [MDL-813]
Q) Hey, which is lower on measured EC50, 1 or 2 ? Could you answer with the label of the item you picked?
A) 1
